Listing of entries alongside the reported EC50.
# System: CEM cells HIV-1 protection, formazan growth assay
# experimental_details: NCI AIDS Antiviral Assay

{"molecule": "N#CCCN(CCCN(C(=O)Nc1ccc(NC(=O)N(CCCN(CCC#N)C(N)=O)c2ccccc2)cc1)c1ccccc1)C(N)=O", "EC50": "> 200 µM"}
{"molecule": "Cc1cc(C)nc(NS(=O)(=O)c2ccc(Nc3c4ccccc4nc4c(C(=O)N5CCN(CCOS(C)(=O)=O)CC5)cccc34)cc2)n1", "EC50": "> 42.7 µM"}
{"molecule": "COc1cc2c(cc1OC)C1C[C@]3(CCN1CC2)C(=O)N(c1ccccc1)C(=O)N3C(C)=O (stereo partly specified)", "EC50": "> 10 µM"}
{"molecule": "O=C(O)CC12C3C4C5C3C1C5C42 (stereo unspecified)", "EC50": "> 575 µM"}
{"molecule": "CC1=CC(=O)N2[C@H](OC[C@@H]2C(C)C)O1", "EC50": "> 1260 µM"}
{"molecule": "Cc1cn2c(n1)sc1ccccc12", "EC50": "> 200 µM"}
{"molecule": "Cc1cc(N=O)cc(C)c1O", "EC50": "> 200 µM"}
{"molecule": "O=C(NCCN(CCNC(=O)c1cccc(O)c1O)CCNC(=O)c1cccc(O)c1O)c1cccc(O)c1O", "EC50": "> 200 µM"}
{"molecule": "COc1ccc2nc3cc([N+](=O)[O-])ccc3c(Nc3ccc(S(=O)(=O)Nc4ncccn4)cc3)c2c1", "EC50": "> 200 µM"}
{"molecule": "CCN(CC)CCC(=O)NC1c2ccccc2Sc2c(C)cccc21 (stereo unspecified)", "EC50": "> 513 µM"}
{"molecule": "NC(CCOCCP(=O)(O)CCC1C=CC=CC1)C(=O)O (stereo unspecified)", "EC50": "> 200 µM"}
{"molecule": "COc1cccc(N2C(=O)C3C4C=C5c6ccccc6N(c6ccccc6)C5(C3C2=O)[C@H]2C(=O)N(c3cccc(OC)c3)C(=O)[C@@H]42)c1 (stereo partly specified)", "EC50": "> 4.37 µM"}
{"molecule": "Oc1ccc(N=C2N=c3c(c4ccccc4c4ccccc34)=N2)c2ccccc12", "EC50": "> 200 µM"}
{"molecule": "C/C(O)=C(/C=NC(=S)C(N)=S)C(=O)Nc1ccccc1", "EC50": "> 200 µM"}
{"molecule": "CNc1ccc(Cl)cc1C(=O)N1CCC[C@H]1CO", "EC50": "> 200 µM"}
{"molecule": "O=c1cn[nH]c2nc3ccccc3n12", "EC50": "> 200 µM"}
